assay: Drug metabolism in Sprague-Dawley rat cecal contents assessed as colonic bacteria-mediated rate for final reduction product formation relative to sulfasalazine reduction rate; assay type: ADME
measuredEndpoint: Ratio
Please give the numeric answer without any surrounding text.

O=C(O)c1cc([N+](=O)[O-])ccc1O 0.45

Any idea what its Ratio is? The molecule is O=C(O)c1cc(C(=O)O)cc([N+](=O)[O-])c1 0.128

Any idea what its Ratio is? The molecule is Cc1ccc([N+](=O)[O-])cc1C(=O)O 0.603

Any idea what its Ratio is? The molecule is CN(C)c1ccc([N+](=O)[O-])cc1C(=O)O 0.724

Any idea what its Ratio is? The molecule is O=C(O)c1cc([N+](=O)[O-])cc(C(F)(F)F)c1 1.222

====

test: Drug metabolism in Sprague-Dawley rat cecal contents assessed as colonic bacteria-mediated rate for final reduction product formation relative to sulfasalazine reduction rate; type: ADME
measuredEndpoint: Ratio
Please give the numeric answer without any surrounding text.

The cases that follow already have their Ratio on record.
O=C(O)c1cc([N+](=O)[O-])ccc1Cl 1.013
O=C(O)c1cccc([N+](=O)[O-])c1 0.759

Attention now shifts to the item below.
Any idea what its Ratio is? The compound is O=C(O)c1ccc([N+](=O)[O-])cc1C(=O)O 0.113
